TESTED ON: hERG (Homo sapiens, UniProt Q12809)
Sequence (Q12809 whole entry): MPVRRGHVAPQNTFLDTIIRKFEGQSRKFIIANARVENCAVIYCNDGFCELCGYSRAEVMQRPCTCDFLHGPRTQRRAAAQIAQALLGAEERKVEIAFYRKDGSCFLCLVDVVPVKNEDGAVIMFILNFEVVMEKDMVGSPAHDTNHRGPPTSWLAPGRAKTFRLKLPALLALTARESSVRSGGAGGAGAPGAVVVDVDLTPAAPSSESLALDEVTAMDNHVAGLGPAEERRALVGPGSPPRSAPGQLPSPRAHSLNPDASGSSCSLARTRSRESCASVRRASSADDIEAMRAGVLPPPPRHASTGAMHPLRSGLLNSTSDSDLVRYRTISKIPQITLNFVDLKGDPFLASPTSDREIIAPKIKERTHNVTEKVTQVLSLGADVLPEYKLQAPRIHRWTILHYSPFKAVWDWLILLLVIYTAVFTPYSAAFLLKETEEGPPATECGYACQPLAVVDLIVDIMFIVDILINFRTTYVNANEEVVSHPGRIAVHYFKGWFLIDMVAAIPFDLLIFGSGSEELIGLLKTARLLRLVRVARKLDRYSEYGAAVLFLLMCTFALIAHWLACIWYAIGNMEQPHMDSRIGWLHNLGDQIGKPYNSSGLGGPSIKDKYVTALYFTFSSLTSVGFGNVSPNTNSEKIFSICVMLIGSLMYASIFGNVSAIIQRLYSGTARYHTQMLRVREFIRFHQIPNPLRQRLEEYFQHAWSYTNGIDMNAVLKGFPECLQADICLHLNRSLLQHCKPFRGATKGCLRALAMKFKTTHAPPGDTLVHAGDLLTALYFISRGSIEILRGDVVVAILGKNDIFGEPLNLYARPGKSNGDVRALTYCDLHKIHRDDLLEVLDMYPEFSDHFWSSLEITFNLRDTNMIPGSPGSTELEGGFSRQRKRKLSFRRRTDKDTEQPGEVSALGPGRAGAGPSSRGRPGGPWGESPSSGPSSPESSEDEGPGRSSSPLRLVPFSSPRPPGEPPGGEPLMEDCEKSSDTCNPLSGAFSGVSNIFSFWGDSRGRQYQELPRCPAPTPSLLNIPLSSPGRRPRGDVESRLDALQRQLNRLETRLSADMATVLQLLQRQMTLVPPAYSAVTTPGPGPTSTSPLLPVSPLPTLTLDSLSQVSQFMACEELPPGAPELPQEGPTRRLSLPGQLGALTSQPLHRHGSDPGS
TEST PROTOCOL: Patch clamp assay (hERG tail currents, whole-cell)
CONDITION INFO: 10 μM compound
READOUT NAME: hERG % Remaining

CC(C)N(C(=O)c1cc(F)ccc1Oc1cncnc1N1CC2(CCN(C[C@@H]3CC[C@@H](NS(=O)(=O)C4CC4)CO3)CC2)C1)C1CC(F)(F)C1    ++ (233% and ≤66%)
Cc1nc(S(=O)(=O)N[C@@H]2CC[C@@H](CN3CCC4(CC3)CN(c3ncncc3Oc3ccc(F)cc3C(=O)N(C(C)C)C(C)C)C4)OC2)cs1    ++ (233% and ≤66%)
